Target: Alpha-2A adrenergic receptor (Bos taurus, UniProt Q28838)
Sequence (Q28838 whole entry): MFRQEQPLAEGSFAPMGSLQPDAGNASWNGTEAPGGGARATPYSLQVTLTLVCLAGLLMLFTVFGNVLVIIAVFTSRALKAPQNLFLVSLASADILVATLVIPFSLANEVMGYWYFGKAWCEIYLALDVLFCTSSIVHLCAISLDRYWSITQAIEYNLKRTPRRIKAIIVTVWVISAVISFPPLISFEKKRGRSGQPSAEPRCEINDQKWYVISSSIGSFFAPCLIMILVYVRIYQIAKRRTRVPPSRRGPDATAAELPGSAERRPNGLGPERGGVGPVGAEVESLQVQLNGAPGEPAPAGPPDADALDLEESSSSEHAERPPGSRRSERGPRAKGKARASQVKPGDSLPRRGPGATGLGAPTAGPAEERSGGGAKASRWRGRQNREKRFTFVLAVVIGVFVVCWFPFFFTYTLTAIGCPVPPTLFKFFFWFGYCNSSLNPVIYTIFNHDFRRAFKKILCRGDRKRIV
Assay: Concentration necessary to achieve half maximal inhibition of [3H]clonidine binding to alpha-2 adrenergic receptor at 1 uM
Record form. Attribute: IC50. Fill in for each entry.
Response body: numeric value in nM, unit text excluded.

Write down IC50 measured for item CCCN1CCC[C@@H]2c3c(OC)cc(C)cc3OC[C@H]21
504

Write down IC50 measured for item CCCN1CCC[C@@H]2c3ccccc3OC[C@H]21
88

Write down IC50 measured for item CCCN1CCC[C@@H]2c3cc(O)ccc3OC[C@H]21
559

Write down IC50 measured for item CCCN1CCC[C@@H]2c3ccc(O)cc3OC[C@H]21
249

Write down IC50 measured for item CCCN1CCC[C@@H]2c3c(O)cccc3OC[C@H]21
362

Write down IC50 measured for item CCCN1CCC=C2c3ccccc3OCC21 (stereo not drawn)
208

Write down IC50 measured for item COc1cc(C)cc2c1[C@H]1CCCN(C)[C@@H]1CO2
946

Write down IC50 measured for item CCCN1CCC=C2c3cc(O)ccc3OCC21 (stereo not drawn)
634

Write down IC50 measured for item CCCN1CCC[C@@H]2c3c(OC)cccc3OC[C@H]21
71

Write down IC50 measured for item CCCN1CCC=C2c3c(OC)cccc3OCC21 (stereo not drawn)
151

Write down IC50 measured for item Cc1ccc(O)c2c1[C@H]1CCCN(C)[C@@H]1CO2
1020

Write down IC50 measured for item CCCCN1CCC[C@@H]2c3cccc(O)c3OC[C@H]21
39

Write down IC50 measured for item CCCN1CCC[C@@H]2c3cccc(O)c3OC[C@H]21
77

FYI, the data here is from ChEMBL document CHEMBL1124434.
